- Assay Details: Pharmacokinetics of Tac in rats alone or co-administered with deoxyschizandrin or Wuzhi capsule (UHPLC-MS/MS of plasma)
- Type: in vivo, SD rats
- Assay Context: male, SD, rat, plasma, 1 mg/kg, NG2203: 1.0 mg/kg of Tac alone, rat plasma
Measurement Name: half-life (h)

| Molecule | Measurement Name | Measured Result |
| --- | --- | --- |
| C=CC[C@@H]1/C=C(\C)C[C@H](C)C[C@H](OC)[C@H]2O[C@@](O)(C(=O)C(=O)N3CCCC[C@H]3C(=O)O[C@H](/C(C)=C/[C@@H]3CC[C@@H](O)[C@H](OC)C3)[C@H](C)[C@@H](O)CC1=O)[C@H](C)C[C@@H]2OC [Tac, Tacrolimus] | half-life | 7.3 |

----------
- Assay Details: Pharmacokinetics of Tac in rats alone or co-administered with deoxyschizandrin or Wuzhi capsule (UHPLC-MS/MS of plasma)
- Type: in vivo, SD rats
- Assay Context: male, SD, rat, plasma, 1 mg/kg, NG2206: 1.0 mg/kg of Tac plus 300 mg/kg deoxyschizandrin, rat plasma
- Experimental: The mobile phase A was acetonitrile, and mobile phase B was 0.1% formic acid in water, and the initial mobile phase of gradient elution program was consisted of 60% phase A and 40% phase B. The sample injection volume was set at 10 μL. Gradient elution program was supplied in Supplementary Table S1. The mass spectrometry detection was achieved on an Agilent 6460A mass spectrometer with ESI source. […] All analytes were detected in positive ionization mode. […]

| Mol Smiles | AUC(0-t) |
| --- | --- |
| C=CC[C@@H]1/C=C(\C)C[C@H](C)C[C@H](OC)[C@H]2O[C@@](O)(C(=O)C(=O)N3CCCC[C@H]3C(=O)O[C@H](/C(C)=C/[C@@H]3CC[C@@H](O)[C@H](OC)C3)[C@H](C)[C@@H](O)CC1=O)[C@H](C)C[C@@H]2OC | 486 ng·h/mL |

----------
- Assay Details: Pharmacokinetics of deoxyschizandrin in rats after single and multiple administrations (UHPLC-MS/MS of plasma)
- Format: in vivo, SD rats
- Assay Context: male, SD, rat, plasma, po, 150 mg/kg, NG2202: 150 mg/kg deoxyschizandrin multiple (12 days), rat plasma, D11-D12
- Protocol: The mobile phase A was acetonitrile, and mobile phase B was 0.1% formic acid in water, and the initial mobile phase of gradient elution program was consisted of 60% phase A and 40% phase B. The sample injection volume was set at 10 μL. Gradient elution program was supplied in Supplementary Table S1. The mass spectrometry detection was achieved on an Agilent 6460A mass spectrometer with ESI source. […] All analytes were detected in positive ionization mode. […]

| Mol Smiles | Unit Name | AUC(0-inf) |
| --- | --- | --- |
| COc1cc2c(c(OC)c1OC)-c1c(cc(OC)c(OC)c1OC)C[C@H](C)[C@H](C)C2 | ng·h/mL | 2410 |

----------
- Assay Details: Pharmacokinetics of Tac in rats alone or co-administered with deoxyschizandrin or Wuzhi capsule (UHPLC-MS/MS of plasma)
- Format: in vivo, SD rats
- Assay Context: male, SD, rat, plasma, 1 mg/kg, NG2204: 1.0 mg/kg of Tac plus 75 mg/kg deoxyschizandrin, rat plasma
Measurement Name: Tmax (h)

| Mol Smiles | Measurement Name | Unit Name | Measured Result |
| --- | --- | --- | --- |
| C=CC[C@@H]1/C=C(\C)C[C@H](C)C[C@H](OC)[C@H]2O[C@@](O)(C(=O)C(=O)N3CCCC[C@H]3C(=O)O[C@H](/C(C)=C/[C@@H]3CC[C@@H](O)[C@H](OC)C3)[C@H](C)[C@@H](O)CC1=O)[C@H](C)C[C@@H]2OC | Tmax | h | 1.17 |
